FYI, the data here is from patent US12091411B2.

Target: IRAK4 (Homo sapiens)
Construct: Degradation of IRAK4 in OCI-LY10 was quantitatively measured using Meso Scale Discovery technology; endogenous in cells; host or cells: OCI-LY10
Sequence (Q9NWZ3 whole entry): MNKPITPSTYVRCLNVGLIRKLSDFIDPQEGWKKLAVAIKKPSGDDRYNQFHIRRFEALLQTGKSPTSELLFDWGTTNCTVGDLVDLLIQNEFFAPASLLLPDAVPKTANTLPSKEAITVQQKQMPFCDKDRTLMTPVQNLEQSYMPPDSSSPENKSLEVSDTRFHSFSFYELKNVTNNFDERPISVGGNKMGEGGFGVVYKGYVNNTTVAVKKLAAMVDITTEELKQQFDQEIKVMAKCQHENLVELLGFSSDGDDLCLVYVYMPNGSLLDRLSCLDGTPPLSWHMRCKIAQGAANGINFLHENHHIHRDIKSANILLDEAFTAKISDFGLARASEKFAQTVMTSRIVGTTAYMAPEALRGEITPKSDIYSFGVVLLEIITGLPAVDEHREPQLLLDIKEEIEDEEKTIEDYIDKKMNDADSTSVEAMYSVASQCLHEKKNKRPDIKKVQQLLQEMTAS
Test: IRAK4 MSD Degradation in OCI-LY10
Assay type: cell-based
Settings: OCI-LY10 cells, 24 hrs incubation, MSD; read-out: IRAK4 degradation in OCI-LY10 at 24 hrs: DC50
Experimental: Degradation of IRAK4 in OCI-LY10 was quantitatively measured using Meso Scale Discovery technology. […] Compounds were then added to the assay plates with a final top concentration of 1 to 10 μM in a 1:3 dilution series with total of 8 doses. […] The assay plates were then incubated at room temperature for 1 hour, washed 3 times with 150 μL/well TBST buffer, and 150 μL/well MSD reading buffer (Meso Scale Discovery catalog number R92TC-2) was added. […]
observation type: DC50

Example entries and their recorded answers appear below.
Cn1c(=O)n(C2CCC(=O)NC2=O)c2cccc([C@@H]3CCN(C[C@H]4CC[C@H](n5cc6cc(NC(=O)c7cccc(C(F)F)n7)ccc6n5)CC4)C[C@@H]3F)c21 (some centres unmarked) [I-628] = > 0.2 µM
COc1cc2nn([C@H]3CC[C@H](CN4CCC5(CC4)CCN(c4ccc(Cl)c(C6CCC(=O)NC6=O)c4)CC5)CC3)cc2cc1NC(=O)c1cncc(C#N)c1 (some centres unmarked) [I-255] = > 0.2 µM
CN(Cc1ccc(-n2cc(NC(=O)c3cnn4cccnc34)c(C(F)F)n2)cc1)C1CCN(c2cccc3c2n(C)c(=O)n3C2CCC(=O)NC2=O)CC1 (centres unmarked) [I-314] = > 0.2 µM
CN(Cc1ccc(-n2cc(NC(=O)c3cnn4cccnc34)c(C(F)F)n2)cc1)C1CCN(c2cccc3c2n(C)c(=O)n3C2CCC(=O)NC2=O)CC1(F)F (centres unmarked) [I-377] = > 0.2 µM
Cc1cccc(C(=O)Nc2cc3cn([C@H]4CC[C@H](CN5CC[C@H](c6cccc7c6n(C)c(=O)n7C6CCC(=O)NC6=O)[C@H](F)C5)CC4)nc3cn2)n1 (some centres unmarked) [I-635] = > 0.2 µM
Cn1c(=O)n(C2CCC(=O)NC2=O)c2cccc(OC3CN(C[C@H]4CC[C@H](n5cc6cc(NC(=O)c7cccc(C(F)(F)F)n7)c(C(C)(C)O)cc6n5)CC4)C3)c21 (some centres unmarked) [I-696] = < 0.01 µM
Cn1c(=O)n(C2CCC(=O)NC2=O)c2cccc(C3CCN(C[C@H]4CC[C@H](n5cc6cc(NC(=O)c7cccc(C(F)(F)F)n7)c(C#N)cc6n5)CC4)CC3F)c21 (some centres unmarked) [I-548] = < 0.01 µM
Cn1c(=O)n(C2CCC(=O)NC2=O)c2cccc(C#CCN3CC4CCC(C3)N4C[C@H]3CC[C@H](n4cc(NC(=O)c5cnn6ccc(N7C[C@H]8C[C@@H]7CO8)nc56)c(C(F)F)n4)CC3)c21 (some centres unmarked) [I-342] = > 0.2 µM
Cn1c(=O)n(C2CCC(=O)NC2=O)c2cccc(C#CCOC3CCN(C[C@H]4CC[C@H](n5cc(NC(=O)c6cnn7ccc(N8C[C@H]9C[C@@H]8CO9)nc67)c(Cl)n5)CC4)CC3)c21 (some centres unmarked) [I-167] = 0.01 to 0.1 µM
Cn1c(=O)n(C2CCC(=O)NC2=O)c2cccc(N3CC4(CCN(C[C@H]5CC[C@H](n6cc7cc(NC(=O)c8cccc(C(F)(F)F)n8)ncc7n6)CC5)CC4(F)F)C3)c21 (some centres unmarked) [I-668] = 0.01 to 0.1 µM

# ---- query compound ----
Recorded DC50 for Cn1c(=O)n(C2CCC(=O)NC2=O)c2cccc(CC[C@@H]3CN(Cc4ccc(-n5cc(NC(=O)c6cnn7ccc(N8C[C@H]9C[C@@H]8CO9)nc67)c(C(F)F)n5)cc4)CCO3)c21 (some centres unmarked) [I-396] , please?
> 0.2 µM
